All figures here come from patent US20160326240A1.

# system tested: T1, Rat RGMa-His (rat) (UniProt D4A188)
# T1 sequence: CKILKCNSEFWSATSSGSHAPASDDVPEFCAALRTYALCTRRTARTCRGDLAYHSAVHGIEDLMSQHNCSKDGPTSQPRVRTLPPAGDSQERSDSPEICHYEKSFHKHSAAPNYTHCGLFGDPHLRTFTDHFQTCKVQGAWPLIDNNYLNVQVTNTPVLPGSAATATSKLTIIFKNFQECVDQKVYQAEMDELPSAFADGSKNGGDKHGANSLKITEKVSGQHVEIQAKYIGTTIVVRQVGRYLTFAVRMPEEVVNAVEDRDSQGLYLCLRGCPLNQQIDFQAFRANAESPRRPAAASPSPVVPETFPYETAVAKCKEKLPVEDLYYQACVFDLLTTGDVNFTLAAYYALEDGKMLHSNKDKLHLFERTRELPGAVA
# method summary: BIAcore
Kindly state koff for each of the entries shown.
Hi! Could you send only the number? It should be in s⁻¹, unit omitted.

Q) # koff lookup, item AE12-1-I (antibody, V domains shown) VH: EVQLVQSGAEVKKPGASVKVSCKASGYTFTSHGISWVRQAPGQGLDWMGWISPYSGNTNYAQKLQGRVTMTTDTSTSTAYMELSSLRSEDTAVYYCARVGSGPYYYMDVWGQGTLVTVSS VL: QSALTQPRSVSGSPGQSVTISCTGTSSSVGDSIYVSWYQQHPGKAPKLMLYDVTKRPSGVPDRFSGSKSGNTASLTISGLQAEDEADYYCISYAGTDTLFGGGTKVTVL
A) 0.00032

Q) # koff lookup, item AE12-1 (antibody, V domains shown) VH: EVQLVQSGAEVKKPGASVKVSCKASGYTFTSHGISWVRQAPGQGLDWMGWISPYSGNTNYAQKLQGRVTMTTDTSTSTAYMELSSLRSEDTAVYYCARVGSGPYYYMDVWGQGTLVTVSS VL: QSALTQPRSVSGSPGQSVTISCTGTSSSVGDSIYVSWYQQHPGKAPKLMLYDVTKRPSGVPDRFSGSKSGNTASLTISGLQAEDEADYYCCSYAGTDTLFGGGTKVTVL
A) 0.00048

Q) # koff lookup, item AE12-1-F (antibody, V domains shown) VH: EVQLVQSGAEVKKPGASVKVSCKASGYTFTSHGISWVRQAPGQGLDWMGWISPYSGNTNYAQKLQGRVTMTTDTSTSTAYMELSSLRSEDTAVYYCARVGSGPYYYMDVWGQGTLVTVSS VL: QSALTQPRSVSGSPGQSVTISCTGTSSSVGDSIYVSWYQQHPGKAPKLMLYDVTKRPSGVPDRFSGSKSGNTASLTISGLQAEDEADYYCFSYAGTDTLFGGGTKVTVL
A) 0.00014

Q) # koff lookup, item AE12-1-V (antibody, V domains shown) VH: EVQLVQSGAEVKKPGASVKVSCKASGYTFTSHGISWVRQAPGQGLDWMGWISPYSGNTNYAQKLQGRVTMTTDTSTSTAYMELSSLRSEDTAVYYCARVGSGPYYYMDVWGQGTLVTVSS VL: QSALTQPRSVSGSPGQSVTISCTGTSSSVGDSIYVSWYQQHPGKAPKLMLYDVTKRPSGVPDRFSGSKSGNTASLTISGLQAEDEADYYCVSYAGTDTLFGGGTKVTVL
A) 0.00032

Q) # koff lookup, item AE12-1-L (antibody, V domains shown) VH: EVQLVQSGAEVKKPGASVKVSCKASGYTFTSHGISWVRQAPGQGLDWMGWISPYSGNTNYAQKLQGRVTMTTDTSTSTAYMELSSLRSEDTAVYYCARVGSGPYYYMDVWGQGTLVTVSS VL: QSALTQPRSVSGSPGQSVTISCTGTSSSVGDSIYVSWYQQHPGKAPKLMLYDVTKRPSGVPDRFSGSKSGNTASLTISGLQAEDEADYYCLSYAGTDTLFGGGTKVTVL
A) 0.00039
